The values you see were collected from ChEMBL document CHEMBL1255183.

molecular target: Protein kinase C eta type (Homo sapiens, UniProt P24723)
Sequence (P24723 whole entry): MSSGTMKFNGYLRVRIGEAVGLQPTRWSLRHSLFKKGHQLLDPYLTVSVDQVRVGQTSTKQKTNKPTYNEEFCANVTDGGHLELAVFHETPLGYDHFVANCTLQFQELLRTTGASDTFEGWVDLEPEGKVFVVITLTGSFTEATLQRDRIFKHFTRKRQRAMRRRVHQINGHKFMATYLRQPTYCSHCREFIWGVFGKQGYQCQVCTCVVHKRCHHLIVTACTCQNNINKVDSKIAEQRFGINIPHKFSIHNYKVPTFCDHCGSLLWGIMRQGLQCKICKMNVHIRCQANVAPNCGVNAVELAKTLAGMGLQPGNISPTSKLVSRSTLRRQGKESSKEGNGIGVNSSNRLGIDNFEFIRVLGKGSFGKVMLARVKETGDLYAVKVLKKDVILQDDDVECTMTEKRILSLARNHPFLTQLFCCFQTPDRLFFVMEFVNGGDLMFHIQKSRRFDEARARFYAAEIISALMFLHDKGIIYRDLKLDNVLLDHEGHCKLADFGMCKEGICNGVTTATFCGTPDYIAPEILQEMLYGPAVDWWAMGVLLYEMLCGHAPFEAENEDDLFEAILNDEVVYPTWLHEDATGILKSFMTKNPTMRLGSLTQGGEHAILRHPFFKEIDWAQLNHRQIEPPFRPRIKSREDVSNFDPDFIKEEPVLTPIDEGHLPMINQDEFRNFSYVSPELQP
Ki values for the compounds below.
Dear colleague, please return just the value in nM, with no unit written.

Known Ki results, listed for orientation:
Quick one: Ki for `CC1(C)CC[C@@H]2CC(=O)O[C@@H](CO)CC(=O)O[C@@H]3C[C@@H](CCCCc4ccccc4)O[C@@]1(C3)O2` ?
12

What value of measured Ki is listed for `O=C1C[C@H](CO)OC(=O)C[C@H]2CCC[C@]3(C[C@@H](C[C@@H](CCCCc4ccccc4)O3)O1)O2` ?
180

Item `CC1(C)CC[C@@H]2CC(=O)O[C@@H](CO)CC(=O)O[C@@H]3C[C@@H](CCCCc4cccc(O)c4)O[C@@]1(C3)O2` has what recorded Ki?
4.4

Further cases:
# Ki lookup, item `CO[C@@H](CC[C@H](C)[C@H]1O[C@@]23C[C@H](OC(=O)C[C@H]([C@@H](C)O)OC(=O)C[C@](O)(O2)[C@H](C)CC3(C)C)[C@@H]1C)c1cc(O)ccc1Br`
0.36
